# Tested on: Rattus norvegicus
# measurementNotes: Evaluated for the prolactin inhibition at the dose 50 ug/kg administered intraperitoneally
# Format: functional
# setupConditions: ip
observationType: inhibition in vivo at 0.05 mg/kg (%)
All answers are understood in %, so give the number only.

Examples from the recorded data:
>>> df
                                   compound                   observationtype  value
0  CCCN1C[C@H](CSC)C[C@@H]2c3cccc4[nH]cc(c34)C[C@H]21 [PERGOLIDE]  inhibition in vivo at 0.05 mg/kg     95
1  C[C@@H](CO)NC(=O)[C@@H]1C=C2c3cccc4[nH]cc(c34)C[C@H]2N(C)C1.O=C(O)/C=C\C(=O)O [ERGONOVINE MALEATE]  inhibition in vivo at 0.05 mg/kg     36
2  CC1=C[C@@H]2c3cccc4[nH]cc(c34)C[C@H]2N(C)C1  inhibition in vivo at 0.05 mg/kg     63
3  C[C@@H](CO)NC(=O)C1C=C2c3ccccc3CC[C@H]2N(C)C1 (stereo partly specified)  inhibition in vivo at 0.05 mg/kg    -24
4  CC1=C[C@@H]2c3ccccc3CC[C@H]2N(C)C1.O=C(O)C(=O)O  inhibition in vivo at 0.05 mg/kg      9

I am curious: what inhibition in vivo at 0.05 mg/kg value has been reported for CCCN1C[C@H](CSC)C[C@@H]2c3ccccc3CC[C@H]21.O=C(O)C(=O)O [DEPYRROLO PERGOLIDE] ? 35
